# Tested on: MDA-MB-231 breast
# experiment-summary: NCI tumour cell line growth inhibition, 48 h
Please go through the items and note down their TGI.

Field TGI (entry COc1cc(C2CC(c3ccc(Nc4ccnc5cc(Cl)ccc45)cc3)=NN2c2ccc(Cl)cc2)cc(OC)c1OC (centres undefined) ) reads 27.1 µM

Reported TGI for COC(=O)CC[C@H](Cc1ccccc1)NC(=O)c1csc([C@@H](C[C@H](C(C)C)N(C)C(=O)[C@@H](NC(=O)[C@H]2CCCCN2C)C(C)C)OC(C)=O)n1 was > 25 µM

Documented TGI of COc1cc(CNNC(N)=S)cc(OC)c1OC : > 100 µM

What the record says about O=C1CSC(c2cccc([N+](=O)[O-])c2)N1c1ccc(-n2c(-c3ccccc3)nc3ccccc3c2=O)cc1 (centres undefined) : TGI is > 100 µM

Value of TGI reported for the compound CC(=O)Nc1ccc(C2SCc3nc4ccccc4n32)cc1 (centres undefined) is > 100 µM

# TGI (compound: Nn1c(Cc2ccc([N+](=O)[O-])cc2)n[nH]c1=O ) is > 100 µM

TGI in this record for N#Cc1c(N)nc(Sc2ccccc2N)c(C#N)c1-c1ccc(Cl)cc1 : 35.7 µM

So for O=C1c2ccccc2S(=O)(=O)c2cc(-c3nn[nH]n3)ccc21 , the logged TGI turned out to be > 100 µM

TGI for CN(C)c1nc(Cl)c2c(-c3ccccc3)c(-c3ccccc3)oc2n1 is > 100 µM

* * *

# Tested on: NCI/ADR-RES ovarian
# experiment-summary: NCI tumour cell line growth inhibition, 48 h
What TGI was measured for each of the following?
Number only, in µM; omit the unit.

Considering CN(Cc1cc(C(C)(C)C)cc(Br)c1O)Cc1cc(C(C)(C)C)cc(Br)c1O , its TGI with NCI/ADR-RES ovarian was recorded as 11.1

Record for COc1ccc(-c2ccc(-c3ccc(C(=N)N)o3)o2)cc1 under target or system NCI/ADR-RES ovarian: TGI reported as 10.1

Summary: Cc1ncc(C(=O)Nc2ccc(CN3CCN(C)CC3)c(C(F)(F)F)c2)cc1C#Cc1cnc(N)cc1C#N , NCI/ADR-RES ovarian, TGI = 5.24

For the compound Oc1ccc(-c2nc3ccc(Cl)cc3s2)cc1 , the measured TGI on NCI/ADR-RES ovarian was 57.1

Param item: COc1ccc2nc(-c3ccc(O)cc3)sc2c1 ; param system: NCI/ADR-RES ovarian; output TGI: 72.6

Summary: CC(=O)OCc1cc2ccccc2nc1C(Br)(Br)Br , NCI/ADR-RES ovarian, TGI = 44

# TGI measured on NCI/ADR-RES ovarian for item CO/N=C(\C)c1cccc(Nc2c3ccccc3nc3occc23)c1 = 15.6

Bench note, NCI/ADR-RES ovarian: COc1cccc(/C=N/C(/N=C/c2cccc(OC)c2O)c2cccc(OC)c2O)c1O , TGI reads 85.2

// assay NCI/ADR-RES ovarian, entry O=C(NNC(=S)NC1CCCCC1)c1csc(NC(=S)NC2CCCCC2)n1 , TGI value = 13.3

NCI/ADR-RES ovarian assay, compound NC(=S)N/N=C\c1nccc2ccccc12 , recorded TGI = 1.13

Item CC1=C(C(=O)Nc2ccccc2)C2(CCCCC2)C(C#N)=C(SCC(=O)Nc2ccc(Br)cc2)N1 was tested on NCI/ADR-RES ovarian; the reported TGI is 27.3

Reported TGI (NCI/ADR-RES ovarian) for entry OCC#Cc1ccccc1C#CCCCCCC#Cc1ccccc1C#CCO is 36.7

CCCCCCCCCCCCC(O)[C@H]1CC[C@H](C(O)CCCCCC(=O)CCCCC2CC(C(C)=O)C(=O)O2)O1 (some centres not stated) tested on NCI/ADR-RES ovarian gave TGI: 40.4

* * *

# System: MDA-MB-435
# experiment-summary: NCI tumour cell line growth inhibition, 48 h
endpoint-name: TGI

The compound listed as Nc1onc2c1Cc1c(noc1N)-c1ccccc1-2 shows TGI equal to > 100 µM

Consider C=C(Br)CNC(=O)CCC(=O)NCC(=C)Br . Its measured TGI is > 100 µM

response.value for Cn1c(-c2cccc([N+](=O)[O-])c2)[n+](C)c2ccccc21 (field: TGI) = > 100 µM

Documented TGI of CC(C)=CC1=C2C3=C(C(=O)C4(O)Oc5c(C)c6c7c(c5OC24C)[C@@H](C)CC[C@@H]7[C@@H](C)C[C@H]6C=C(C)C)C(C)CCC3C(C)C1 (stereo not given in full) : > 100 µM

Entry CC(=O)OCC1OC(n2c(-c3ccc(C)cc3)cc(-c3ccccc3)c(C#N)c2=S)C(OC(C)=O)C(OC(C)=O)C1OC(C)=O (stereo not given) , TGI reported as > 100 µM

* * *

# System: OVCAR-8 ovarian
# experiment-summary: NCI tumour cell line growth inhibition, 48 h
endpoint-name: TGI

compound Oc1ccc2oc3ncc(Br)c(-c4ccccc4)c3c2c1 , TGI observed: > 100 µM

The reported value for CCOC(=O)c1c2c(n3ccccc13)C(=O)c1ncccc1C2=O in terms of TGI is 6 µM

Data point: O=C1C(=O)c2cccnc2-c2ncccc21 ; TGI = 0.727 µM

What the record says about N#CC1CC2(CCN1C(=O)c1ccccc1)OCCO2 (stereo not given) : TGI is > 100 µM

TGI recorded for this compound, CC1(C)C2C=CC1C(=O)CC2 (stereo not given) , is > 100 µM

According to the records, this compound O=c1c2cc(Cl)ccc2sc2cccc(Cl)c12 displays TGI of > 100 µM

Lab note: measured TGI of NC(N)=NS(=O)(=O)c1ccc(Nc2c3ccccc3nc3c(C(=O)Nc4ccc(S(N)(=O)=O)cc4)cccc23)cc1 was > 100 µM

The value of TGI measured for the compound CCN(CC)c1ccc(C(=O)c2ccc(N(CC)CC)cc2)cc1 turned out to be > 38.9 µM

Looking up CCN1CCC(O)(c2ccc(Cl)cc2)C(C(=O)c2ccc(Cl)cc2)C1 (stereo not given) , I see its TGI listed as > 100 µM

The compound C=C(Br)CNC(=O)CCC(=O)NCC(=C)Br showed TGI equal to > 100 µM

Input CC(=O)OCc1ccc2oc(=O)c(C(=O)Oc3ccccc3)cc2c1 . Output TGI: > 100 µM

Briefly, TGI measured for COc1ccccc1C(=O)c1c(NCc2ccccc2)c(=O)c1=O : > 100 µM

Input O=C1c2ccccc2S(=O)(=O)c2cc(-c3nn[nH]n3)ccc21 . Output TGI: > 100 µM

TGI reported for this compound O=C(O)C1CC(O)CN1 (stereo not given) : > 100 µM

The compound identified as COc1cc(C(O)(CC#N)c2cc3c(cc2Br)OCO3)cc(OC)c1OC (stereo not given) registered its TGI at > 100 µM

Briefly, TGI measured for Cc1cn(CC2=NCC(C)N2)c(=O)[nH]c1=O (stereo not given) : > 100 µM

Record CCOC(=O)c1[nH]c(COC(C)=O)c2c1CCCCCCCCCC2 . Reported TGI: > 100 µM

TGI for O=C1c2ccccc2-c2c1c1ccccc1c(=O)n2CCCn1ccnc1 is 2.39 µM

Just so you know, measured TGI for CCCC(=O)OC1C(CO)OC(n2cc(F)c(=O)[nH]c2=O)C1F (stereo not given) came out at > 100 µM

Noted for CC12CCC(Br)C(C)(C)C1CC=C1C(=O)OCC1O2 (stereo not given) : its TGI reads 34.9 µM

Quick note, TGI for CC(=O)Nc1c(C)cc2c(nc3n2CCC3O)c1[N+](=O)[O-] (stereo not given) landed at > 100 µM

Record Cc1ncc(C(=O)Nc2ccc(CN3CCN(C)CC3)c(C(F)(F)F)c2)cc1C#Cc1cnc(N)cc1C#N . Reported TGI: 5.35 µM

According to the records, this compound CC(C(O)c1ccccc1)C(O)(C(F)(F)F)C(F)(F)F (stereo not given) displays TGI of > 100 µM

For record O=C(OC[C@H]1O[C@H](OC(=O)c2cc(O)c(O)c(OC(=O)c3cc(O)c(O)c(O)c3)c2)[C@H](OC(=O)c2cc(O)c(O)c(OC(=O)c3cc(O)c(O)c(O)c3)c2)[C@@H](OC(=O)c2cc(O)c(O)c(OC(=O)c3cc(O)c(O)c(O)c3)c2)[C@@H]1OC(=O)c1cc(O)c(O)c(OC(=O)c2cc(O)c(O)c(O)c2)c1)c1cc(O)c(O)c(OC(=O)c2cc(O)c(O)c(O)c2)c1 the listed TGI is > 25 µM

Form field TGI, entry Cc1cc(C)c(-n2c(-c3ccc(Br)cc3)cs/c2=N\N=C2C=C(C(C)(C)C)C(=O)C(C(C)(C)C)=C2)c(C)c1 : > 100 µM

Form field TGI, entry COC(=O)Nc1nc2ccc(Br)cc2[nH]1 : > 100 µM

compound CC(=O)C1=C(O)CC2CC3c4[nH]c5ccccc5c4CCN3CC2C1 (stereo not given) , TGI observed: > 100 µM

Record O=c1/c(=C/c2ccc(-c3ccc(Cl)cc3Cl)o2)sc2n1[C@@H](c1ccc(Cl)cc1)C=C(c1cc(F)c(Cl)cc1Cl)N=2 , field TGI: > 100 µM

Documented TGI of C/C(=N\NC(=S)NCCCNC(=S)N/N=C(\C)c1ccccn1)c1ccccn1 : 10.9 µM

Consider Cc1cc(N2CCOCC2)cc2[nH]c(-c3c(NC[C@@H](O)c4cccc(Cl)c4)cc[nH]c3=O)nc12 . Its measured TGI is 14.7 µM

response.value for CCOC(=O)CCC(NC(=O)c1ccc(OCc2ccc3nc(-c4ccccc4)c(Cl)nc3c2)cc1)C(=O)OCC (stereo not given) (field: TGI) = 25.3 µM

Field TGI (entry CCN(CC)C(=O)C(C)n1cc(C)c(=O)[nH]c1=O (stereo not given) ) reads > 100 µM

Noted for N[C@H]1CCCC[C@@H]1N1C(=O)c2ccccc2C1(O)c1ccc(Cl)cc1 (stereo not given in full) : its TGI reads 32.4 µM

For this compound ( CN(C)c1ccc(/C=c2\sc3nc4ccccc4n3c2=O)cc1 ), measured TGI is > 100 µM

Form field TGI, entry O=Cc1c(O)c(C(=O)Nc2ccc3[nH]c(=O)[nH]c3c2)cc2ccccc12 : > 100 µM

Value of measured TGI for the entry CC(C)OP(=O)(NC(=S)c1ccccc1)OC(C)C : > 100 µM

The recorded TGI for entry Cc1ccc2c(c1)-c1nc(N)c(C#N)c(-c3ccccc3)c1CCS2(=O)=O equals 56.5 µM

Briefly, TGI measured for CCOC(=O)C(SCCO)C(C(=O)OCC)n1ccc(=O)[nH]c1=O (stereo not given) : > 57.4 µM

# TGI (compound: O=C(NCCCCCCNC(=O)c1cc(-c2ccccc2)nc2ccccc12)c1cc(-c2ccccc2)nc2ccccc12 ) is > 100 µM

// sample CN(C)c1ccc(/C=C/c2cc[n+](C)c(/C=C/c3ccc(N(C)C)cc3)c2)cc1 , its TGI was 1.26 µM
